# TEST_SYSTEM: Adenosine receptor A2a (Homo sapiens) (UniProt P29274)
# Sequence (P29274 whole entry, looked up): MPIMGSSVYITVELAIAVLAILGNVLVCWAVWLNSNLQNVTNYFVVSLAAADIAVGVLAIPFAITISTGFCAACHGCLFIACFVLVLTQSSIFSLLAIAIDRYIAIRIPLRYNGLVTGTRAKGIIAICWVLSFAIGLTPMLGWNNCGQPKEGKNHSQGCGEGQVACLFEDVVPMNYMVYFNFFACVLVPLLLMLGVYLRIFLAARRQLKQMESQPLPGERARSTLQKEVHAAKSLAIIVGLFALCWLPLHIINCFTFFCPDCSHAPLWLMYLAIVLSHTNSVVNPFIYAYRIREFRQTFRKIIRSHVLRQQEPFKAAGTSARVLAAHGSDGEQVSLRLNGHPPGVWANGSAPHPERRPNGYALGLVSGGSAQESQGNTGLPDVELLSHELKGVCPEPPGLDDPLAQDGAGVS
# MEASUREMENT_PROTOCOL: Negative allosteric modulation of A2AR (unknown origin) expressed in CHO cells in presence of adenosine by CamBio assay
ENDPOINT_LABEL: IC50

1. N#Cc1c(N)nc(N2CCCCC2)c(C#N)c1-c1cccnc1 9 nM

Every entry's value here was drawn from BindingDB's records for PubMed 39882870.
